Numbers sourced from PubChem BioAssay (NCI).

system: LXFL 529 NSCLC; experiment: NCI tumour cell line growth inhibition, 48 h
readout kind: TGI (µM)
Numeric only. Scale: µM

CC(C)C1COC(c2ccc3ccccc3c2-c2c(O[Si](C)(C)C(C)(C)C)ccc3ccccc23)=N1 (stereo not given)    28.7

// next entry
Look up TGI: CC(C)(C)C(=O)/C=C/c1cccc(Oc2ccccc2)c1 33.1

====

tested on: DLD-1 colon; experiment: NCI tumour cell line growth inhibition, 48 h
Recorded TGI, one value per entry.

FC(F)(F)c1nc(-c2ccccc2)oc1Sc1oc(-c2ccccc2)nc1C(F)(F)F    > 100 µM

TGI of COC1=CC(=O)C2C(C1=O)C(c1ccc(OC)c(OC)c1)[C@H]2C (some centres not stated) on DLD-1 colon? 31.5 µM

Another compound to check: CCOC(=O)Nn1c(C)cc(C(=O)OC)c1C > 100 µM

Another compound to check: CC(C)c1cccc(C(C)C)c1NC(=O)CCC(=O)NN > 100 µM

Another compound to check: Cc1ccc(NC(=O)CC2C(=O)Nc3ccccc3S2=O)c(C)c1 (configuration not stated) > 76.5 µM

Another compound to check: Cc1ccc(SSCCCCCS(=O)O)cc1 > 100 µM

Another compound to check: CC/C(SC)=[N+](\C)[O-] > 69 µM
